- assay.target: UCHL1 (Homo sapiens)
- Construct: (1-223); made in house
- Sequence (P09936 whole entry): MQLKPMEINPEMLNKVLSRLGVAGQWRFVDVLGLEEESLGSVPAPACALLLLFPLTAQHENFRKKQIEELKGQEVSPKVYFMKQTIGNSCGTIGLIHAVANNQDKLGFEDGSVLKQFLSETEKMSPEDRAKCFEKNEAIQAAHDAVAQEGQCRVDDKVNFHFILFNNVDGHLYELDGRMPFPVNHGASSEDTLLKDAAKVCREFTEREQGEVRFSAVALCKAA
- assay.info: High-throughput screening, Ub-RhoMP, single dose 1.25 µM
- Assay type: biochemical
- measurement.parameters: crude in-plate synthesized compound, 1.25 µM assuming full conversion
- Description: Since the in‐plate synthesis was conducted in 1536‐well Echo plates, the compounds could readily be transferred from these plates into 1536‐well assay plates using acoustic liquid dispensing (Figure 2a) and subjected to HTS. […] The percentage inhibition was calculated for each well using the […]
Recorded %inhibition UCHL1 by entry
reported.property: %inhibition UCHL1

>>> reported_value("N#CN1CC[C@@H](NC(=O)c2nc(N3CCCC3)ncc2Cl)C1")
"15.1%"
>>> reported_value("N#CN1CC[C@@H](NC(=O)Cc2csc(-c3cnccn3)n2)C1")
"8.8%"
>>> reported_value("N#CN1CC[C@@H](NC(=O)c2ncoc2-c2cccs2)C1")
"8.0%"
>>> reported_value("N#CN1CC[C@@H](NC(=O)C(Cc2c[nH]cn2)NS(=O)(=O)c2ccc(Cl)cc2)C1 (some centres unmarked)")
"11.2%"
>>> reported_value("N#CN1CC[C@@H](NC(=O)CCN(Cc2ccccc2)S(=O)(=O)c2c(Cl)cccc2Cl)C1")
"9.7%"

* * *

- assay.target: mUSP18 (Mus musculus, UniProt Q9WTV6)
- Construct: (46-368); His-tag (N); made in house
- Sequence (Q9WTV6 46-368): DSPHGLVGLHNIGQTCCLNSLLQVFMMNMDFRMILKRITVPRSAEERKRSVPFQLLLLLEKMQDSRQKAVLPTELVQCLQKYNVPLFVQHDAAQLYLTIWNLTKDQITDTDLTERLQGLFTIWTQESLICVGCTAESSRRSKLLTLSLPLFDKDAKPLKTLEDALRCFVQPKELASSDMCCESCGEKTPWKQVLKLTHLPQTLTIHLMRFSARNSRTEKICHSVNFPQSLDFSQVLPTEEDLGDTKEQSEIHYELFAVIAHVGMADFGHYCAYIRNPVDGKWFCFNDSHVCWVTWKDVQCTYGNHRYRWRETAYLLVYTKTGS
- assay.info: High-throughput screening, ISG15ct-RhoMP, single dose 1.25 µM
- Assay type: biochemical, murine
- measurement.parameters: mUSP18 %inhibition; carboxylic acid (CA) building block alone; read-out: %inh CA only
reported.property: inhibition at 1.25 µM (%)

>>> reported_value("O=C(O)c1ccc(N2CCCCCC2)nc1 [CA344]")
0.4
>>> reported_value("O=C(O)c1cccc(N2CCOCC2)n1 [CA360]")
3.09
>>> reported_value("CN(Cc1ccccc1)C(=O)N1CCC(C(=O)O)CC1 [CA333]")
1.66
>>> reported_value("O=Cc1ccccc1C(=O)O [CA045]")
-3.41
>>> reported_value("O=C(O)c1cc(S(=O)(=O)N2CCOCC2)c[nH]1 [CA199]")
1.4
>>> reported_value("O=C(O)c1cccc(OCCOc2ccccc2Cl)n1 [CA309]")
8.2
>>> reported_value("O=C(O)C(c1ccccc1)n1cccc1 (stereo not drawn) [CA457]")
0.68
>>> reported_value("O=C(O)CNC(=O)c1ccccc1 [CA019]")
-4.39
>>> reported_value("Cc1cnn(-c2c(C(=O)O)c(C)nn2C)c1 [CA110]")
12.9
>>> reported_value("CC(C(=O)O)n1nc(C(F)(F)F)cc1C1CC1 (stereo not drawn) [CA227]")
2.61
>>> reported_value("O=C(O)c1cccnc1Oc1ccc(Cl)cc1Cl [CA427]")
-5.52
>>> reported_value("Cc1cc(C)c(C(=O)O)c(OCC2CCCCC2)n1 [CA131]")
9.41
